molecular target: PDE10A (Homo sapiens, UniProt Q9Y233); construct: made in house; host or cells: SF21 insect cells (baculovirus); experiment: Inhibition of recombinant PDE10A (baculovirus/SF21 system), [3H]-cAMP SPA; assay type: biochemical; conditions: recombinant PDE10A1, cytosolic; 0.1 μM [3H]-cAMP, 37° C., 30 minutes; read-out: PDE10A IC50
Sequence (Q9Y233 1-779 isoform Q9Y233-1): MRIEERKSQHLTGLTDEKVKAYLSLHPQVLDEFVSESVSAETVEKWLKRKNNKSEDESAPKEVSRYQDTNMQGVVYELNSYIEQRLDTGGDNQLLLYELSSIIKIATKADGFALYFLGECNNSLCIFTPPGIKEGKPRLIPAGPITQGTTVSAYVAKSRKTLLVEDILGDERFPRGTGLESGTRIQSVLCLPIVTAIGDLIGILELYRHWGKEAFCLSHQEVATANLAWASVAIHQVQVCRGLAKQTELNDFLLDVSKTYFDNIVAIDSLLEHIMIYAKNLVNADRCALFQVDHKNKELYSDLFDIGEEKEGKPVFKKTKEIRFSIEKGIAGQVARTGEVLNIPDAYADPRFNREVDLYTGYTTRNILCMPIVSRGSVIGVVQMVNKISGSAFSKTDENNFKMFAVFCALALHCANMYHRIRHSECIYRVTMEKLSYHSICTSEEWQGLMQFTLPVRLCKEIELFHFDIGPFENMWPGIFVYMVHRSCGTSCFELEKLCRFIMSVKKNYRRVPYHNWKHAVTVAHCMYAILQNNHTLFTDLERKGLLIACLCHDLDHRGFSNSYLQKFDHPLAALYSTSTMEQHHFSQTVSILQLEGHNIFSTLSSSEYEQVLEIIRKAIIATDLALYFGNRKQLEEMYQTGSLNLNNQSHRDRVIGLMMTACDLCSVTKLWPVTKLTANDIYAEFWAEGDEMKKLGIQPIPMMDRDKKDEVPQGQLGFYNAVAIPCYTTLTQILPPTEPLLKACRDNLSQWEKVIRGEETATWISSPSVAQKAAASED
Kindly supply the reported log10 IC50 values for the records listed here.
Plainly stated, the numbers are log10 of IC50 given in nM.

Give log10 IC50 (PDE10A (Homo sapiens, UniProt Q9Y233)) of the following compound: COc1cc(F)c2nnc3c(C)nc(-c4ccncc4)n3c2c1
2.39

What measured log10 IC50 is associated with COc1cc(OCc2ccccc2)cc2c1nnc1c(C)nc(-c3ccncc3C)n12 on PDE10A (Homo sapiens, UniProt Q9Y233)?
-0.15

Item: COc1cc(F)c2nnc3c(C)nc(-c4cccnc4)n3c2c1 Test system: PDE10A (Homo sapiens, UniProt Q9Y233) Read-out: log10 IC50 Value: ?
2.59

// lookup log10 IC50 | system=PDE10A (Homo sapiens, UniProt Q9Y233) | key= Cc1nc(-c2ccnn2C)n2c1nnc1ccc(Cl)cc12
3.60

Tell me reported log10 IC50 for COc1cc(F)c2nnc3c(C)nc(-c4cc(OC(F)(F)F)ccc4Cl)n3c2c1 , tested with PDE10A (Homo sapiens, UniProt Q9Y233).
1.82
